- TESTED ON: HLA-A*02:01
- TEST DETAILS: IEDB peptide-MHC binding, purified MHC/competitive/radioactivity; filed as Kd, often an IC50 or EC50 that approximates it; bounds were set here for any values at or beyond the usual limits of such assays
- ASSAY CONTEXT: source organism: Trypanosoma cruzi
pKd: −log10 of the molar value.
Here the recorded pKd is given for each entry.
EXPERIMENTAL ENDPOINT: pKd

>>> reported_measurement("KALETDVPA")
"≤ 4.36"
>>> reported_measurement("WAFSAIGNV")
4.78
>>> reported_measurement("STSRVPYDI")
"≤ 4.36"
>>> reported_measurement("QVHSSLSVV")
"≤ 4.36"
>>> reported_measurement("ALKNNGKVV")
"≤ 4.36"
>>> reported_measurement("WIVQENNGA")
4.89
>>> reported_measurement("NVLLYNRLL")
5.22
>>> reported_measurement("LLVGYNDSA")
"≤ 4.55"
>>> reported_measurement("WMTYTGGVMT")
"≤ 4.55"
>>> reported_measurement("GLTFKGPGA")
"≤ 4.36"
>>> reported_measurement("MACLVPAAT")
"≤ 4.57"
>>> reported_measurement("VAVNGPVAV")
"≤ 4.55"
>>> reported_measurement("LTFKGPGAWA")
"≤ 4.36"
>>> reported_measurement("SVPLNQCNWL")
"≤ 4.55"
>>> reported_measurement("AIVTCGAETL")
"≤ 4.55"
>>> reported_measurement("AIVFDHYDV")
"≤ 4.36"
>>> reported_measurement("FANSKFTLVA")
"≤ 4.36"
>>> reported_measurement("YATVEVPSL")
5.26
>>> reported_measurement("MTEQTDEAV")
"≤ 4.36"
>>> reported_measurement("VTLPTGQCL")
"≤ 4.55"
>>> reported_measurement("LAAVLVVMA")
"≤ 4.64"
>>> reported_measurement("MALIGDSTV")
4.76
>>> reported_measurement("GVQGGFVSA")
"≤ 4.36"
>>> reported_measurement("LLVGYNDSAA")
"≤ 4.55"
>>> reported_measurement("SLSVVRPMT")
5.07
>>> reported_measurement("QMSCTDAACI")
"≤ 4.55"
>>> reported_measurement("IVQENNGAV")
"≤ 4.55"
>>> reported_measurement("LVQAFHSFRA")
5.16
>>> reported_measurement("FTDNKSCVSL")
4.84
>>> reported_measurement("CLLTTSGVSA")
4.98
>>> reported_measurement("RIILNGSLL")
"≤ 4.36"
>>> reported_measurement("MTYTGGVMT")
"≤ 4.55"
>>> reported_measurement("VLLLVVVMM")
"≤ 4.55"
>>> reported_measurement("LLGLWGTAA")
5.20
>>> reported_measurement("LLTTSGVSA")
"≤ 4.55"
>>> reported_measurement("WADEYLCVNA")
"≤ 4.36"
>>> reported_measurement("VLVVMACLV")
5.13
>>> reported_measurement("STHCSGPSV")
"≤ 4.55"
>>> reported_measurement("LVYVNGVVV")
5.04
>>> reported_measurement("AACIVGCENV")
"≤ 4.55"

Values compiled from the Immune Epitope Database (IEDB).
